Attribution: the supplement of paper PMC5998384

# Tested on: HeLa Kyoto
# Procedure Text: melting temperature (median over replicates), in situ; higher = more thermally stable
# Condition Info: cell cycle stage: G1/S
Test Readout: melting temperature (°C)
One number for each entry, in °C.

Illustrative cases are given below, each with its answer.
MASPSRRLQTKPVITCFKSVLLIYTFIFWITGVILLAVGIWGKVSLENYFSLLNEKATNVPFVLIATGTVIILLGTFGCFATCRASAWMLKLYAMFLTLVFLVELVAAIVGFVFRHEIKNSFKNNYEKALKQYNSTGDYRSHAVDKIQNTLHCCGVTDYRDWTDTNYYSEKGFPKSCCKLEDCTPQRDADKVNNEGCFIKVMTIIESEMGVVAGISFGVACFQLIGIFLAYCLSRAITNNQYEIV [TSPAN6] : 58.9
MAGDVGGRSCTDSELLLHPELLSQEFLLLTLEQKNIAVETDVRVNKDSLTDLYVQHAIPLPQRDLPKNRWGKMMEKKREQHEIKNETKRSSTVDGLRKRPLIVFDGSSTSTSIKVKKTENGDNDRLKPPPQASFTSNAFRKLSNSSSSVSPLILSSNLPVNNKTEHNNNDAKQNHDLTHRKSPSGPVKSPPLSPVGTTPVKLKRAAPKEEAEAMNNLKPPQAKRKIQHVTWP [C2ORF49] : 50.3

Next:
Value (melting temperature, HeLa Kyoto) for record MASKRALVILAKGAEEMETVIPVDVMRRAGIKVTVAGLAGKDPVQCSRDVVICPDASLEDAKKEGPYDVVVLPGGNLGAQNLSESAAVKEILKEQENRKGLIAAICAGPTALLAHEIGFGSKVTTHPLAKDKMMNGGHYTYSENRVEKDGLILTSRGPGTSFEFALAIVEALNGKEVAAQVKAPLVLKD [PARK7] = 56.8

---

# System: HeLa Kyoto
# Procedure Text: thermal stability score vs G1/S (z-score of summed log2 fold changes over temperatures); higher = more thermally stable than in G1/S
# Condition Info: cell cycle stage: early G1 (4.5 h after nocodazole release)
Would you kindly list thermal stability score for each of these sequences?
Answers are plain numbers.

MADAASQVLLGSGLTILSQPLMYVKVLIQVGYEPLPPTIGRNIFGRQVCQLPGLFSYAQHIASIDGRRGLFTGLTPRLCSGVLGTVVHGKVLQHYQESDKGEELGPGNVQKEVSSSFDHVIKETTREMIARSAATLITHPFHVITLRSMVQFIGRESKYCGLCDSIITIYREEGILGFFAGLVPRLLGDILSLWLCNSLAYLVNTYALDSGVSTMNEMKSYSQAVTGFFASMLTYPFVLVSNLMAVNNCGLAGGCPPYSPIYTSWIDCWCMLQKEGNMSRGNSLFFRKVPFGKTYCCDLKMLI [MTCH2] : -2.66

Next:
Data point: MKAVVQRVTRASVTVGGEQISAIGRGICVLLGISLEDTQKELEHMVRKILNLRVFEDESGKHWSKSVMDKQYEILCVSQFTLQCVLKGNKPDFHLAMPTEQAEGFYNSFLEQLRKTYRPELIKDGKFGAYMQVHIQNDGPVTIELESPAPGTATSDPKQLSKLEKQQQRKEKTRAKGPSESSKERNTPRKEDRSASSGAEGDVSSEREP [DTD1] ; thermal stability score = 2.15

---

# Test system: HeLa Kyoto
# Procedure Text: solubility in G1/S (NP-40 vs SDS abundance) (log2 ratio); higher = more soluble
# Condition Info: cell cycle stage: G1/S
Test Readout: solubility in G1/S (log2)
Give bare numbers.

MAAAGGGGGGAAAAGRAYSFKVVLLGEGCVGKTSLVLRYCENKFNDKHITTLQASFLTKKLNIGGKRVNLAIWDTAGQERFHALGPIYYRDSNGAILVYDITDEDSFQKVKNWVKELRKMLGNEICLCIVGNKIDLEKERHVSIQEAESYAESVGAKHYHTSAKQNKGIEELFLDLCKRMIETAQVDERAKGNGSSQPGTARRGVQIIDDEPQAQTSGGGCCSSG [RAB21] : 0.158
MDDKELIEYFKSQMKEDPDMASAVAAIRTLLEFLKRDKGETIQGLRANLTSAIETLCGVDSSVAVSSGGELFLRFISLASLEYSDYSKCKKIMIERGELFLRRISLSRNKIADLCHTFIKDGATILTHAYSRVVLRVLEAAVAAKKRFSVYVTESQPDLSGKKMAKALCHLNVPVTVVLDAAVGYIMEKADLVIVGAEGVVENGGIINKIGTNQMAVCAKAQNKPFYVVAESFKFVRLFPLNQQDVPDKFKYKADTLKVAQTGQDLKEEHPWVDYTAPSLITLLFTDLGVLTPSAVSDELIKLYL [EIF2B1] : 0.101

Data point: MADWARAQSPGAVEEILDRENKRMADSLASKVTRLKSLALDIDRDAEDQNRYLDGMDSDFTSMTSLLTGSVKRFSTMARSGQDNRKLLCGMAVGLIVAFFILSYFLSRART [BET1L] ; solubility in G1/S (log2) = -0.104

---

# Test system: HeLa Kyoto
# Procedure Text: thermal stability score vs G1/S (z-score of summed log2 fold changes over temperatures); higher = more thermally stable than in G1/S
# Condition Info: cell cycle stage: mitosis
Given measured thermal stability score, output Met if it is greater than or equal to -1 and Not met if not.

MEDTPLVISKQKTEVVCGVPTQVVCTAFSSHILVVVTQFGKMGTLVSLEPSSVASDVSKPVLTTKVLLGQDEPLIHVFAKNLVAFVSQEAGNRAVLLAVAVKDKSMEGLKALREVIRVCQVW [PSMG3] : Not met
HNRNPAB : Not met
MSAEVKVTGQNQEQFLLLAKSAKGAALATLIHQVLEAPGVYVFGELLDMPNVRELAESDFASTFRLLTVFAYGTYADYLAEARNLPPLTEAQKNKLRHLSVVTLAAKVKCIPYAVLLEALALRNVRQLEDLVIEAVYADVLRGSLDQRNQRLEVDYSIGRDIQRQDLSAIARTLQEWCVGCEVVLSGIEEQVSRANQHKEQQLGLKQQIESEVANLKKTIKVTTAAAAAATSQDPEQHLTELREPAPGTNQRQPSKKASKGKGLRGSAKIWSKSN [COPS7A] : Not met
MLVSGRRRLLTVLLQAQKWPFQPSRDMRLVQFRAPHLVGPHLGLETGNGGGVINLNAFDPTLPKTMTQFLEQGEATLSVARRALAAQLPVLPRSEVTFLAPVTRPDKVVCVGMNYVDHCKEQNVPVPKEPIIFSKFASSIVGPYDEVVLPPQSQEVDWEVELAVVIGKKGKHIKATDAMAHVAGFTVAHDVSARDWQMRRNGKQWLLGKTFDTFCPLGPALVTKDSVADPHNLKICCRVNGEVVQSGNTNQMVFKTEDLIAWVSQFVTFYPGDVILTGTPPGVGVFRKPPVFLKKGDEVQCEIEELGVIINKVV [FAHD2A] : Not met
MARENGESSSSWKKQAEDIKKIFEFKETLGTGAFSEVVLAEEKATGKLFAVKCIPKKALKGKESSIENEIAVLRKIKHENIVALEDIYESPNHLYLVMQLVSGGELFDRIVEKGFYTEKDASTLIRQVLDAVYYLHRMGIVHRDLKPENLLYYSQDEESKIMISDFGLSKMEGKGDVMSTACGTPGYVAPEVLAQKPYSKAVDCWSIGVIAYILLCGYPPFYDENDSKLFEQILKAEYEFDSPYWDDISDSAKDFIRNLMEKDPNKRYTCEQAARHPWIAGDTALNKNIHESVSAQIRKNFAKSKWRQAFNATAVVRHMRKLHLGSSLDSSNASVSSSLSLASQKDCLAPSTLCSFISSSSGVSGVGAERRPRPTTVTAVHSGSK [CAMK1D] : Met
MAAVSGLVRRPLREVSGLLKRRFHWTAPAALQVTVRDAINQGMDEELERDEKVFLLGEEVAQYDGAYKVSRGLWKKYGDKRIIDTPISEMGFAGIAVGAAMAGLRPICEFMTFNFSMQAIDQVINSAAKTYYMSGGLQPVPIVFRGPNGASAGVAAQHSQCFAAWYGHCPGLKVVSPWNSEDAKGLIKSAIRDNNPVVVLENELMYGVPFEFPPEAQSKDFLIPIGKAKIERQGTHITVVSHSRPVGHCLEAAAVLSKEGVECEVINMRTIRPMDMETIEASVMKTNHLVTVEGGWPQFGVGAEICARIMEGPAFNFLDAPAVRVTGADVPMPYAKILEDNSIPQVKDIIFAIKKTLNI [PDHB] : Not met
MGQNDLMGTAEDFADQFLRVTKQYLPHVARLCLISTFLEDGIRMWFQWSEQRDYIDTTWNCGYLLASSFVFLNLLGQLTGCVLVLSRNFVQYACFGLFGIIALQTIAYSILWDLKFLMRNLALGGGLLLLLAESRSEGKSMFAGVPTMRESSPKQYMQLGGRVLLVLMFMTLLHFDASFFSIVQNIVGTALMILVAIGFKTKLAALTLVVWLFAINVYFNAFWTIPVYKPMHDFLKYDFFQTMSVIGGLLLVVALGPGGVSMDEKKKEW [SURF4] : Not met
MSTAAVPELKQISRVEAMRLGPGWSHSCHAMLYAANPGQLFGRIPMRFSVLMQMRFDGLLGFPGGFVDRRFWSLEDGLNRVLGLGLGCLRLTEADYLSSHLTEGPHRVVAHLYARQLTLEQLHAVEISAVHSRDHGLEVLGLVRVPLYTQKDRVGGFPNFLSNAFVSTAKCQLLFALKVLNMMPEEKLVEALAAATEKQKKALEKLLPASS [NUDT16L1] : Not met

Evaluate MDPARKAGAQAMIWTAGWLLLLLLRGGAQALECYSCVQKADDGCSPNKMKTVKCAPGVDVCTEAVGAVETIHGQFSLAVRGCGSGLPGKNDRGLDLHGLLAFIQLQQCAQDRCNAKLNLTSRALDPAGNESAYPPNGVECYSCVGLSREACQGTSPPVVSCYNASDHVYKGCFDGNVTLTAANVTVSLPVRGCVQDEFCTRDGVTGPGFTLSGSCCQGSRCNSDLRNKTYFSPRIPPLVRLPPPEPTTVASTTSVTTSTSAPVRPTSTTKPMPAPTSQTPRQGVEHEASRDEEPRLTGGAAGHQDRSNSGQYPAKGGPQQPHNKGCVAPTAGLAALLLAVAAGVLL [LYPD3] : thermal stability score at minimum -1?
Met

Evaluate MRAVLAREMDGRRVLGRFWSGWRRGLGVRPVPEDAGFGTEARHQRQPRGSCQRSGPLGDQPFAGLLPKNLSREELVDALRAAVVDRKGPLVTLNKPQGLPVTGKPGELTLFSVLPELSQSLGLREQELQVVRASGKESSGLVLLSSCPQTASRLQKYFTHARRAQRPTATYCAVTDGIPAASEGKIQAALKLEHIDGVNLTVPVKAPSRKDILEGVKKTLSHFRVVATGSGCALVQLQPLTVFSSQLQVHMVLQLCPVLGDHMYSARVGTVLGQRFLLPAENNKPQRQVLDEALLRRLHLTPSQAAQLPLHLHLHRLLLPGTRARDTPVELLAPLPPYFSRTLQCLGLRLQ [RPUSD3] : thermal stability score at minimum -1?
Met
